- protocol.details: qHTS assay for small molecule agonists of the antioxidant response element (ARE) signaling pathway - cell viability counter screen (AID 743203); further: nearly all actives have a fitted effect of over 55% in size
- reported.conditions: ARE-bla HepG2 viability, CellTiter-Glo luminescence, 16 h; series mostly up to 73.3 µM
Inconclusive results are not listed. The source made the active and inactive calls. The call rests on the fitted dose curve.
Give your call using only these classes: active, inactive

Previously resolved entries follow.
{"molecule": "O=C(NC(=O)c1c(F)cccc1F)Nc1cc(Cl)c(OC(F)(F)C(F)F)c(Cl)c1", "class.label": "inactive"}
{"molecule": "c1ccc2c(c1)OCC(C1=NCCN1)O2 (stereo unspecified)", "class.label": "inactive"}
{"molecule": "CC(C)CC(C)(c1ccc(O)cc1)c1ccc(O)cc1", "class.label": "active"}
{"molecule": "O=C(O)c1cc[c]([Hg][Cl])cc1", "class.label": "active"}
{"molecule": "Oc1ccc(C2(c3ccc(O)cc3)c3ccccc3-c3ccccc32)cc1", "class.label": "active"}

Request: What did this assay record as the result for CC(=O)c1cc(C(C)(C)C)cc2c1CCC2(C)C ?
Result: inactive

Request: Returns: the outcome recorded for [Cl][Sb]([Cl])[Cl] in this assay.
Result: inactive

Request: I'd appreciate the recorded outcome for Oc1c(Br)c(Br)c(Br)c(Br)c1Br from this test.
Result: active

Request: Check the results log: what was the call for c1ccc2c(c1)[nH]c1cnccc12 ?
Result: inactive

Request: Recorded test outcome, item CCCN(CC)CC1COC2(CCC(C(C)(C)C)CC2)O1 (stereo unspecified)
Result: inactive

Request: Please indicate how the test categorized O=CC(Br)(Br)Br .
Result: active

Request: Outcome logged for OC(c1ccc(Cl)cc1)(c1ccc(Cl)cc1)C(Cl)(Cl)Cl in this assay:
Result: active

Request: Could you kindly confirm the outcome this assay logged for C=CC(=O)OCC(COC(=O)C=C)(COC(=O)C=C)COC(=O)C=C ?
Result: active

Request: Tell me the assay call for BrCBr please.
Result: inactive

Request: Per the records of this test, what outcome belongs to COC12CC[C@@]3(C[C@@H]1C(C)(O)C(C)(C)C)[C@H]1Cc4ccc(O)c5c4[C@@]3(CCN1CC1CC1)[C@H]2O5 (stereo partly specified) ?
Result: active

Request: What did the test return for COc1cccc2c1C(=O)c1c(O)c3c(c(O)c1C2=O)C[C@@](O)(C(=O)CO)CC3OC1CC(N2CCOC(OC)C2)C(O)C(C)O1 (stereo partly specified) ?
Result: active

Request: Fill in: this test's call for CCC[CH2][Sn]([CH2]CCC)([CH2]CCC)[O]C(=O)c1ccccc1 is ___
Result: active

Request: GET /call?item= c1ccc(Nc2ccc3ccccc3c2)cc1 returns the recorded outcome of this test.
Result: inactive

Request: Check the results log: what was the call for COc1ccc(/C(=C/C(=O)N2CCOCC2)c2ccc(Cl)cc2)cc1OC ?
Result: inactive

Request: What is the recorded call for this molecule in the test? CC(=O)[O-].CC(=O)[O-].[Hg+2]
Result: active

Request: I would be grateful if you could indicate the recorded call for CC(C)[C@H](C(=O)O[C@H](C#N)c1cccc(Oc2ccccc2)c1)c1ccc(Cl)cc1 .
Result: inactive

Request: Write down the call the test reported for this molecule. Item: CN(C)CCc1c[nH]c2cccc(O)c12
Result: inactive

Request: Outcome? O=[N+]([O-])c1ccc2ccc3cccc4ccc1c2c34
Result: inactive

Request: Short answer needed: outcome of this test for CCCCCCCCCCCCCCCC[n+]1ccccc1 ?
Result: active

Request: Hi, do you know how CN(C)c1ccc(N=Nc2ccccc2)cc1 came out in this test?
Result: inactive

Request: I'd appreciate the recorded outcome for O=C(Nc1ccc2[nH]ccc2c1)c1cc2cc(F)ccc2n1Cc1cccc(F)c1 from this test.
Result: active

Request: Call for entry CN(C)C1CSSSC1 :
Result: inactive

Request: # outcome recorded in this test, key = CCCCCCCCCBr
Result: inactive

Request: What is the recorded call for this molecule in the test? COc1cc(N)c(Cl)cc1C(=O)NC1CN2CCC1CC2 (stereo unspecified)
Result: inactive

Request: Please let me know the test result on file for CCOC(=O)C1(c2ccccc2)CCN(CCC(C#N)(c2ccccc2)c2ccccc2)CC1 .
Result: inactive

---

- protocol.details: qHTS assay to identify small molecule antagonists of the constitutive androstane receptor (CAR) signaling pathway - cell viability counter screen (AID 1224837); further: nearly all actives have a fitted effect of over 45% in size
- reported.conditions: HepG2-CYP2B6-hCAR viability, CellTiter-Fluor, 23 h, co-treated with 50 nM CITCO; series mostly up to 92.4 µM
Inconclusive results are not listed. Calls of active or inactive are those of the source. The call rests on the fitted dose curve; in most records, active means well fitted cell-killing curve with a large enough effect in the repeat runs; inconclusive means weak or mixed curves, or effect the other way; inactive means flat fitted curve, though single readings scatter.
Please reply with one of these outcomes: active, inactive

Use the examples below as a reference point.
{"molecule": "C[C@]12Cc3nonc3C[C@@H]1CC[C@@H]1[C@@H]2CC[C@@]2(C)[C@H]1CC[C@]2(C)O", "class.label": "inactive"}
{"molecule": "BrCC(Br)c1ccccc1 (stereo unspecified)", "class.label": "inactive"}
{"molecule": "O=[N+]([O-])O.O=[N+]([O-])O.[Cd]", "class.label": "active"}
{"molecule": "Oc1ccc2ccc3cccc4ccc1c2c34", "class.label": "inactive"}
{"molecule": "ClC(Cl)=C(c1ccc(Cl)cc1)c1ccc(Cl)cc1", "class.label": "inactive"}

Request: For this molecule, state the assay outcome: OC(c1ccc(Cl)cc1)(c1ccc(Cl)cc1)C(Cl)(Cl)Cl
Result: inactive

---

- experimental.system: Thyrotropin receptor (Homo sapiens)
- protocol.details: qHTS assay to identify small molecule agonists of the thyroid stimulating hormone receptor (TSHR) signaling pathway (AID 1224843); further: nearly all actives have a fitted effect of over 45% in size
- reported.conditions: TSHR-HEK293 cells, cAMP HTRF, agonist mode, 30 min; series mostly up to 92.4 µM
Records with an inconclusive call do not appear. Active and inactive are the calls of the source. The call rests on the fitted dose curve.
parameter: Potency

Known Potency results, listed for orientation:
{"compound": "SCc1ccco1", "experimental.system": "Thyrotropin receptor (Homo sapiens)", "Potency": "inactive"}
{"compound": "CCSC(C)CC1CC(=O)C(/C(CC)=N/OC/C=C/Cl)=C(O)C1 (configuration not stated)", "experimental.system": "Thyrotropin receptor (Homo sapiens)", "Potency": "inactive"}
{"compound": "O=c1[nH]c2ccccc2n1CCCN1CCC(n2c(=O)[nH]c3cc(Cl)ccc32)CC1", "experimental.system": "Thyrotropin receptor (Homo sapiens)", "Potency": "inactive"}
{"compound": "Clc1ccc(COC(Cn2ccnc2)c2ccc(Cl)cc2Cl)cc1 (configuration not stated)", "experimental.system": "Thyrotropin receptor (Homo sapiens)", "Potency": "inactive"}
{"compound": "CN(C)[C@@H]1C(=O)C(C(N)=O)=C(O)[C@@]2(O)C(=O)C3=C(O)c4c(O)ccc(Cl)c4[C@@](C)(O)[C@H]3C[C@@H]12", "experimental.system": "Thyrotropin receptor (Homo sapiens)", "Potency": "inactive"}

Request: Would you mind telling me what Potency value was observed for N#CNC#N ?
Result: inactive

Request: Which Potency is reported for this compound? CC(C)CC(C)N (configuration not stated)
Result: inactive

---

- protocol.details: qHTS assay to identify small molecule antagonists of the retinoic acid receptor (RAR) signaling pathway (AID 1159552; further: nearly all actives have a fitted effect of over 50% in size)
- reported.conditions: C3RL4 RARE luciferase reporter, retinol-stimulated, 6 h; series mostly up to 92.4 µM
Results filed as inconclusive are left out. The source made the active and inactive calls. Calls follow the shape of the dose curve; as a rule, active = well fitted inhibition curve with a large enough effect in the repeat runs; inconclusive = weak or mixed curves, or effect the other way; inactive = no such curve, though single readings can be large or run the other way.
Select the matching outcome among Y (active), N (inactive)

# example entries with known answers
{"compound": "S=C=Nc1cccc2ccccc12", "class.label": "N"}
{"compound": "CC(C)(C)c1cc([N+](=O)[O-])cc(C(C)(C)C)c1O", "class.label": "Y"}
{"compound": "[Cl][Sb]([Cl])[Cl]", "class.label": "N"}
{"compound": "FC(Cl)(Cl)Cl", "class.label": "N"}
{"compound": "CCCCOP(=O)(CCCC)OCCCC", "class.label": "N"}

--- query ---
Request: Please let me know the test result on file for Nc1ccccc1C(=O)OC/C=C/c1ccccc1 .
Result: N

---

- protocol.details: qHTS RealTime-Glo MT Cell Viability Assay in HepG2 cells - 40 hour (AID 1224870); further: nearly all actives have a fitted effect of over 50% in size
- reported.conditions: RealTime-Glo luminescence; series mostly up to 76.8 µM
- Text: National Center for Advancing Translational Sciences [NCATS] NIH Chemical Genomics Center [NCGC] U.S. Environmental Protection Agency [EPA] National Institutes of Environmental Health Sciences [NIEHS] National Toxicology Program [NTP] U.S. Food and Drug Administration [FDA] Measure of cell viability is critical in the cell-base assay. Analysis of cell viability is necessary for the characterization of cell responses to cytotoxic drugs and environmental stress. […]
Records with an inconclusive call do not appear. Calls of active or inactive are those of the source. Calls follow the shape of the dose curve; as a rule, active = well fitted cell-killing curve with a large enough effect in the repeat runs; inconclusive = weak or mixed curves, or effect the other way; inactive = flat fitted curve, though single readings scatter.
Response enum: YES (active), NO (inactive)

Request: Just curious, what result did ClC1=C(Cl)[C@]2(Cl)[C@@H]3[C@@H](Cl)[C@@H](Cl)C[C@@H]3[C@@]1(Cl)C2(Cl)Cl get here?
Result: NO

Request: Record lookup: outcome of this test for COc1ccc([N+](=O)[O-])cc1O ?
Result: NO

Request: What did the test return for CC1(C)C(/C=C(\Cl)C(F)(F)F)C1C(=O)OC(C#N)c1cccc(Oc2ccccc2)c1 (centres undefined) ?
Result: NO
